# ASSAYED_SYSTEM: T1, Reck-CK-Fc
# T1 chain: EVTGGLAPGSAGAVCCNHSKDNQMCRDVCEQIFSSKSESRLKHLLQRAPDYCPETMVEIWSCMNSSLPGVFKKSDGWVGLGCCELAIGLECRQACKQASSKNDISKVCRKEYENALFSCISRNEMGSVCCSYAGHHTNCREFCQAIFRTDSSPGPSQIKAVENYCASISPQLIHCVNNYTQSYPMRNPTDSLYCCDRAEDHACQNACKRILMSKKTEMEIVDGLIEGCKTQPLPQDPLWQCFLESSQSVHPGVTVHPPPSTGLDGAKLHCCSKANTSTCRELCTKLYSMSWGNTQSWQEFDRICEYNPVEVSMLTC
# ASSAY_NAME: isothermal titration calorimetry, peptide titrated into Reck-CK-Fc, 25 °C
OBSERVABLE: pKd
One number for each entry, as −log10 of the molar value.

Q) Let me know recorded pKd for VEPVRASRNKRPTFLKIKKPLSYRKPMDT (Synthetic, purity over 90%; also called synthetic Wnt7a linker peptide; pWnt7a 238-266) [pWnt7a] , thanks.
A) 5.15
